study-system: human GLP-1 receptor (Homo sapiens, UniProt P43220)
Construct: expressed in transfected cells; host or cells: BHK (Baby Hamster Kidney) cells, clone BHK 467-12A KZ-10, stably transfected, with CRE-luciferase reporter
Sequence (P43220 24-463): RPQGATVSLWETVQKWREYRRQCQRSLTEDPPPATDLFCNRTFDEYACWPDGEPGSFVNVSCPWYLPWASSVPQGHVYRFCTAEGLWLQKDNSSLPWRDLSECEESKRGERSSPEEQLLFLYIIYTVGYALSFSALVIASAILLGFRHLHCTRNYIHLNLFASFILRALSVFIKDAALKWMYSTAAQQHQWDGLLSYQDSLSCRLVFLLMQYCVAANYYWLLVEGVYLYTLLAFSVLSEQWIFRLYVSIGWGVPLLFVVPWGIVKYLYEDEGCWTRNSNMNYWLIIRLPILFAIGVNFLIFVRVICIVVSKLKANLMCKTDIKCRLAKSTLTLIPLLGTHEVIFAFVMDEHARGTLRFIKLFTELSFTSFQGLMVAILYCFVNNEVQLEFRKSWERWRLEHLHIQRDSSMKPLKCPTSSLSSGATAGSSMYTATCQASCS
assay-procedure: Human GLP-1 receptor in vitro potency assay (CRE-luciferase reporter, BHK cells)
Type: cell-based
condition-summary: Table 4a; BHK cells expressing human GLP-1R, CRE-Luc, 3 hours; read-out: Human GLP-1R potency [EC50 (pM)]
Starred links: 1 amine or outer side, 2 acyl side, 3 side chain; linkers in the order of their positions; H or OH if unused. Non-standard residues stand in square brackets, D forms with d. Groups on a side chain read outwards from the residue. *: point of attachment. Decanoyl(10-O(3-COOH-Ph)) = O=C(O)c1cccc(OCCCCCCCCCC(=O)*)c1; C16 diacid = O=C(O)CCCCCCCCCCCCCCC(=O)*; γGlu = O=C(O)[C@H](CCC(=O)[*:2])N[*:1]; AEEA = NCCOCCOCC(=O)O; Aib = CC(C)(N)C(=O)O
Here the recorded EC50 is given for each entry.
Write the value in pM as a bare number.

H-H[Aib]EGTFTSDVSSYLEEQAAREFIAWLVRGK([AEEA-AEEA-γGlu-Decanoyl(10-O(3-COOH-Ph))])K([AEEA-AEEA-γGlu-Decanoyl(10-O(3-COOH-Ph))])GGGGASELSTAALGRLSAELHELATLPRTETGSGSP-NH2 [Compound 0235]    10.4
H-H[Aib]EGTFTSDVSSYLEEK([AEEA-AEEA-γGlu-C16 diacid])AAREFIAWLVRGRGGGGGASELSTAALGRLSK([AEEA-AEEA-γGlu-C16 diacid])ELHELATLPRTETGSGSP-NH2 [Compound 0295]    4.8
H-H[Aib]EGTFTSDVSK([AEEA-AEEA-γGlu-C16 diacid])YLEEQAVREFIAK([AEEA-AEEA-γGlu-C16 diacid])LVRGRGGGEASELSTAALGRLSAELHELATLPRTETGSGSP-NH2 [Compound 0483]    33.7

Would you mind telling me what EC50 value was observed for H-H[Aib]EGTFTSDK([AEEA-AEEA-γGlu-C16 diacid])SSYLEEQAAREFIAWLVRGRGGGGGASELSTAALGRLSK([AEEA-AEEA-γGlu-C16 diacid])ELHELATLPRTETGSGSP-NH2 [Compound 0292] ?
12
